# Tested on: MS2 coat protein
# assay_overview: apparent KD of MS2 coat protein; designed switch direction (-1 OFF switch, 1 ON switch): -1; higher = weaker reporter binding
# experimental_conditions: input ligand: FMN 200 uM
parameter_measured: apparent KD of MS2 coat protein (nM)
Use nM as the unit, but write only the number.

## Task Name the recorded apparent KD of MS2 coat protein for AGAGAAUAGACAGGAUAUGAGAAUAGAUAGAGCUCAGAAGGGUCACAUGAGGAUCACCCAUGUGAAGUCUUGAGGCUGCGUGGA [Prohibition 19 - Jieux - Exclusion NG 1] (Eterna round: R96, puzzle: Exclusion NG 1) .
## Result 14.6

## Task Now the same for CCCAUGUUAGGAUAUAUGGAAGGGCAGACGGGCGCCCUAAGGUAGAAGGAACAUGAGGAUCACCCAUGUAAUAA [Zausteesre] (Eterna round: R97, puzzle: Exclusion 4)
## Result 113

## Task Now the same for UGUUGUUCAGGAUAUGAUGUAUAAUACAUGAGGAUCACCCAUGUAGAUCCUGAUUUGGCGUCAGAAGGGAAUGUUG [salish99_ex5_r4_106] (Eterna round: R97, puzzle: Exclusion 5)
## Result 41

## Task Now the same for CGCUGGACAGGAUAUGUUUUUGGGCACUUGAGGAUCACCCAAGUCAUCAAGAAAACAGGCACAGAAGGGUUUAUGG [salish99_ex5_r4_022(!)] (Eterna round: R97, puzzle: Exclusion 5)
## Result 28

## Task Now the same for CCAAGAAUAGGAUAUACACCAUGUCAGCUUAUAUACAACGAACAUGAGGAUCACCCAUGUAGAAGGGUUCUCUC [Exclusion-2-#1] (Eterna round: R97, puzzle: Exclusion 2)
## Result 430

## Task Now the same for GAGAUGCGGAUAGGAUAUGGAAGAAAAGAAGGAUUAGAAGGGUUGGUUAGAAUACAUGAGGAUCACCCAUGUGAAUCAUGAGAA [AK ExNG1-2.3] (Eterna round: R96, puzzle: Exclusion NG 1)
## Result 99.2

## Task Now the same for GUUUCGAGACGGAGAUCCGACAUGAGGAUCACCCAUGUCUCGCAAGCUUUUUGCUCGUCUUAUACUCCUCUGUUCUC [Elimod 46 - Jieux - Sensor, turn-off variant 1] (Eterna round: R97, puzzle: Sensor, turn-off variant 1)
## Result 20.9

---

Quick list: apparent KD of MS2 coat protein per entry.
# Test system: MS2 coat protein
# assay_overview: apparent KD of MS2 coat protein, switch ON state; designed switch direction (-1 OFF switch, 1 ON switch): 1; higher = weaker reporter binding
# experimental_conditions: FMN input: 0 or 200 uM; Eterna round: R93 (includes R88 designs)
Use nM as the unit, but write only the number.

AAAACACAUGAGGAUCACCCAUGUGCAAAAUUCGCAGGAUAUUUCUCGAUUAAAUGAUAGGAAGAAGGGUGAUAAA [Nob's Hobby 35 - Jieux - Same State 1]	25.8
AGAAAUAAAAUGGAGGAUAUCCAAAAGAAAACAUGAGGAUCACCCAUGUAAAAGAAAAUAAAAUGGGAGAAGGCCACAAAUAAAG	26.8
AUAAAAGAAGCGAAGGAUAUCCAAAAUCCAACAUGAGGAUCACCCAUGUAAAGAAAGAAAAAAUGGGAGAAGGUCGCAAAGAAUA [73%, More Fisker Same State 2, D3, 11]	13.5
ACGGUCAAGUGUGAGGAUAUCCAGGCUCCCACAUGAGGAUCACCCAUGUCUUAAAGGGCGUAAAGGGAGAAGGUACGAACGCCAC [Vesolees]	33.2
AAUAAUUAUACGAAGGAUAUCGGUAAUUAGACAUGAGGAUCACCCAUGUAAUAUGGUUAAAUAUUCGAGAAGGUCGAGGGUGAAA [JR_SS002_Sub504]	336
AAAAUACAUGAGGAUCACCCAUGUGAAAAUAUGGGAGGAUAUACAAAAACGAAAGUAAAAGUAGAAGGCCUAAAAA [SS! 1 MT 1]	37.8
GGGAGACAUGAGGAUCACCCAUGUGAGAAGAGGCGAGGAUAUCGAAAGAAAGAAGAGAAACGAGAAGGCGCGAGUA [salish99-SS1-050]	29.7
UGUUCGAGUAGUGAGGAUAUUCAUGGGCCCACAUGAGGAUCACCCAUGUAAAGGACCGGGCCGAAGGAGAAGGCGCGUAAAAUUA [Esenan]	28.9
AAACCACAUGAGGAUCACCCAUGUAAAAAUAUGGGAGGAUAUCGGAAUAAAAUAAAGAAACGAGAAGGCCUAAAAA [59%, Flamingo, 5]	33.7
AAAAAACAUGAGGAUCACCCAUGUAAAAAAAUGGGAGGAUAUACAAAAACGAAAGUCAAAGUAGAAGGCCUGAAAA [same state 5]	19.3

## Task Name the recorded apparent KD of MS2 coat protein for AGAAAACAUGAGGAUCACCCAUGUGACAAUAUGGGAGGAUAUACAAAGACGAAAGUCGAAGUAGAAGGCCUAAAGA [Garnet 52] .
## Result 26.1

## Task Now the same for AGGAGACAUGAGGAUCACCCAUGUGAGAAGAGGCGAGGAUAUCGAAAGAAAGAAAGAAAACGAGAAGGCGCGAGAA [salish99-SS1-016]
## Result 28

## Task Now the same for AAAAAAUAAAAAAAGGAUAUACUGCUAGAAACAUGAGGAUCACCCAUGUAACUAGCAGUAAUAAAAAAGAAGGAAAAAUAAAAAA [SS2: MS2 35]
## Result 1.15

---

# Tested on: MS2 coat protein
# assay_overview: apparent KD of MS2 coat protein, switch OFF state (with FMN for OFF switches, without FMN for ON switches); designed switch direction (-1 OFF switch, 1 ON switch): -1; higher = weaker reporter binding
# experimental_conditions: FMN input: 0 or 200 uM; Eterna round: R93 (includes R88 designs)
Threshold rule: apparent KD of MS2 coat protein greater than or equal to 40 nM is yes (1); below that, no (0).

Please review the entries below; each comes with its answer.
AACAGUACAGGAUAUACAUGAGGAUCACCCAUGUGAGAAUUAAAAGGCGUACCUAAAUGUAGAAGGGUACUGGA [JL Maslow Revisted mod 19]	yes (1)
AAAUUGUCAGGAUAUGUAGCAAAAGGUGAUCAAAAAAAGCUACAGAAGGGACAUGAGGAUCACCCAUGUAAAAA [Ex4: 936]	yes (1)
GAUCCACAUGAGGAUCACCCAUGUAAGGAUAUUUAAAACCGGAGGAAACCCUCCGAAGAAAGAAGGUACAAAAC [Atceabi]	no (0)

## Task Please check the record AAAAAACAUGAGGAUCACCCAUGUGAGGAUAUCGGUAGUGAGGCUAUAGUGUCAGUAAUGAGAAGGCACAUAAA [Brourd 613 Mod 11 - Jieux - Exclusion 1] and state if its apparent KD of MS2 coat protein is at or above 40 nM.
## Result no (0)

## Task Now the same for AACAUGUCAGGAUAUGUAGCAAAAGGUGAUCAAAAAAAGCUACAGAAGGGACAUGAGGAUCACCCAUGUAAAAA [Ex4: 934]
## Result no (0)

## Task Now the same for AACAAGUGAGGAUAUGAAAAUAAAACAAACAAACAAAUAAAUCAGAAGGCACAUGAGGAUCACCCAUGUAAAAA [JR_Exc004_Sub1203]
## Result no (0)

---

# Test system: MS2 coat protein
# assay_overview: apparent KD of MS2 coat protein; higher = weaker reporter binding
# experimental_conditions: Eterna round: R107; input ligand: theophylline 2 mM
parameter_measured: apparent KD of MS2 coat protein

Known results for sequences:
GGGCAAGGUGCCGCCUUCGCCCACUGAGAAGGAGCGCAGGGUACUGCAGGUAGGUCGCUCAGACAUGAGGAUCACCCAUGUAGGA [Esislees]	76 nM
ACAUGAAGAACAGCGGUGGGCGCGCUCGAUACCAGUAUUUUAAAUUACCCUUGGCAGCGACAUGAGGAUCACCCAUGUGAGAUGA [XTheo A #5]	33.8 nM

Continue with the sequence presented below.
## Task Name the recorded apparent KD of MS2 coat protein for CAAAAUGCGGCGGCCGCCACUCAGCUCCGUGUGGUUGGUCAUCUUAACAUGAGGAUCACCCAUGUGAGGACCGGGCCAGCGAGUG [theeternabot_exclusion_MS2_Trp_B_38] .
## Result 17 nM

---

# Tested on: K4 kissing-loop RNA reporter;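 also: bound reporter read as fluorescence of individual clusters on recovered sequencing chips by microscopy, with normalized cluster intensities fitted with a binding model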
# assay_overview: apparent KD of K4 kissing-loop reporter; higher = weaker reporter binding
# experimental_conditions: Eterna round: R107; input ligand: tryptophan 2.4 mM
parameter_measured: apparent KD of K4 kissing-loop reporter (nM)
Use nM as the unit, but write only the number.

Known results for sequences:
AUCACAGUGAUGUUGUGAUAUGGUACAGAUACCAGACUAGUGCUAGUCCCUUGGCAGCUGUACUCAGCAGCACCACUAGCACUCG [Theo A Ex t6b]	128
AUUUUCAAUUUAUUAUAUAACUUUUCAGAAGGAGCGUGGAAGUUCACAGGUAGGUCGCUGAAUAUAGGACUAGUGAUGUUAGUUA [JR_Nu_SSArginiA_Sub023]	258
AACACCCGCUAUGAUACCAGUGAAGUGAUGUUUUACUCCGGGCGUAAGACAAAGGUCAGCCACCCUUGGCAGCAUAUCCGCGUAU [theeternabot_exclusion_KL_Theo_B_35]	440
AAUAUACAGGGAAGGAGCGCCGUCCAGUGAUGUUGGAGUUAAAUACCAGUGAUGUUGGUUAGGCAGGUAGGUCGCCCUAAAGUAU [Exclusion Arginine B Gf 2]	96.7
GCGCGUCAUGUCAGCGGUGACACUGUCGAUACCAGCGCCGCAAGGCGCCCUUGGCAGCGACGCGCUGGAGUGAUGUUCCAGCGUG [#2 Exclusion - Theophylline A Attempt #14 (HarryS)]	169

## Task Name the recorded apparent KD of K4 kissing-loop reporter for AAAAUAAGCCAGUGAUGUUGGUAUCCAGAUACCAGCGACGAAAGUCGCCCUUGGCAGCUGUGGACGUACAAAAUAAGUACGUCCU .
## Result 126

## Task Now the same for AAACAUCACUGGGAGUGAUGUUCUCAGUGACGAGGACCGGUACGGCCGCCACUCGCGAGAGAUCUAGUCUAGUCUUGACUGCAUU [Excl Tryptophan A V13]
## Result 333

## Task Now the same for AGCUCAGAGUGACUCGAUAAGAGUCACAAACGAGGACCGGUACGGCCGCCACUCGAAAUAACGAGAGUGAUGUUCUUGCUGAGCA [FiskerMod 7 - Jieux - Same State Tryptophan A]
## Result 386

## Task Now the same for GUCCCAGUGAUGUUGGUAGGCGAGCGGGAUACCAGCCAAGACUCAGGCCCUUGGCAGCCCACAUAUCCCACGUAGGGAUUAGCUC [Same State - Theophylline A (Freestyle 19)]
## Result 173

## Task Now the same for GCCUAGCAGGGAAGGAGCGCCAUAUAAUUAAAAGGUAAUUAAUGAGUGAUGUUCAAAUAAUGGCAGGUAGGUCGCCCUGCUAGGC [KL-SSArg B10]
## Result 283

## Task Now the same for UUAGAAGUAUACUUCAAGAGGUAUGCUGAUACCAGAGUCAAUUGACUCCCUUGGCAGCGGAUCGAGUGAUGUUCGUAACCUCAUU [AK3.1 SS Theophylline A]
## Result 141

Value source: the supplement of paper PMC9170038
